Measured pIC50, listed per entry for reference.
# TARGET OR SYSTEM: human PD-L1 / Human PD-1 (Homo sapiens (Human))
# Sequence (Q9NZQ7 19-239): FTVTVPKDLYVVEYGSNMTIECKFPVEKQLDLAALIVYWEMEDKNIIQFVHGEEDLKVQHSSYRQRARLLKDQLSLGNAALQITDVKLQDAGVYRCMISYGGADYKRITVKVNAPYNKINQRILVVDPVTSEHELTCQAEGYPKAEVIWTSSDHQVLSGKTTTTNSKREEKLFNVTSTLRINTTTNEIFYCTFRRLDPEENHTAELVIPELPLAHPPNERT
# TEST METHOD NOTES: Enzyme-Linked Immunosorbent Assay (ELISA), PD-1/PD-L1 binding
# RUN PARAMETERS: plate-coated human PD-L1, biotinylated human PD-1
pIC50: −log10 of the molar value.

SMILES STR: N#Cc1cncc(COc2cc(O[C@H]3CCc4c(-c5cccc(OCCCN6CCCCC6)c5Cl)cccc43)c(Cl)cc2CNC[C@H]2CCC(=O)N2)c1
pIC50: > 8.30
//
SMILES STR: CCOc1cc(O[C@H]2CCc3c(-c4cccc(OCCCN5[C@H](C)CC[C@H]5C)c4C)cccc32)c(Cl)cc1CN1CCC(C(=O)OC)CC1
pIC50: 6.30 to 8.30
//
SMILES STR: Cc1c(OCCCN2CCC(C)(F)CC2)cccc1-c1cccc2c1C[C@H](F)[C@@H]2Oc1cc(OCc2cc(C#N)cc(C#N)c2)c(CN[C@H]2CCC(=O)NC2)cc1Cl
pIC50: 6.30 to 8.30
//
SMILES STR: N#Cc1cncc(COc2cc(O[C@H]3CCc4c(-c5cccc(OCCCN6CCC(O)CC6)c5Cl)cccc43)c(Cl)cc2CNC[C@@H]2CCC(=O)N2)c1
pIC50: > 8.30
//
SMILES STR: N#Cc1cncc(COc2cc(O[C@H]3CCc4c(-c5cccc(OCCCN6CCC(F)CC6)c5Cl)cccc43)c(Cl)cc2CN2CC3(C2)NC(=O)NC3=O)c1
pIC50: > 8.30
//
SMILES STR: N#Cc1cncc(-c2cc(O[C@H]3CCc4c(-c5cccc(OCCCN6CCC(F)CC6)c5Cl)cccc43)c(Cl)cc2CN[C@@H]2CCCC[C@@H]2O)c1
pIC50: 6.30 to 8.30

Origin of values: patent US10919852B2
